- tested-system: Human immunodeficiency virus type 1 protease (Human immunodeficiency virus 1)
- assay-remarks: Antiviral activity against the HTLV-III strain of HIV-1 in CEM cell lines
- Assay type: functional, cell-based
- condition-set: CCRF-CEM

given-smiles	ID50 / nM
CC(C)(C)NC(=O)c1ccccc1OC[C@@H](O)[C@H](Cc1ccccc1)NC(=O)[C@H](CC(N)=O)NC(=O)c1cnnc2ccccc12	9300
CC(C)(C)NC(=O)c1ccccc1OC[C@H](O)[C@H](Cc1ccccc1)NC(=O)[C@H](CC(N)=O)NC(=O)c1cc(O)c2ccccc2n1	11200
CC(C)(C)NC(=O)c1ccccc1OC[C@@H](O)[C@H](Cc1ccccc1)NC(=O)[C@H](CC(N)=O)NC(=O)c1ccc2c(c1)C(=O)c1ccccc1C2=O	330
CC(C)(C)NC(=O)c1ccccc1OC[C@H](O)[C@H](Cc1ccccc1)NC(=O)[C@H](CC(N)=O)NC(=O)c1cnnc2ccccc12	13400
CC(C)(C)NC(=O)c1ccccc1OC[C@H](O)[C@H](Cc1ccccc1)NC(=O)[C@H](CC(N)=O)NC(=O)c1ccc2c(c1)C(=O)c1ccccc1C2=O	2300
CC(C)(C)NC(=O)c1ccccc1SC[C@H](O)[C@H](Cc1ccccc1)NC(=O)[C@H](CC(N)=O)NC(=O)c1ccc2ccccc2c1	13400
CC(C)(C)NC(=O)c1ccccc1OC[C@H](O)[C@H](Cc1ccccc1)NC(=O)[C@H](CC(N)=O)NC(=O)c1nc2ccccc2nc1O	10600
CC(C)(C)NC(=O)c1ccccc1OC[C@@H](O)[C@H](Cc1ccccc1)NC(=O)[C@H](CC(N)=O)NC(=O)c1cnc2ccccc2n1	630
CC(C)(C)NC(=O)c1ccccc1OC[C@H](O)[C@H](Cc1ccccc1)NC(=O)[C@H](CC(N)=O)NC(=O)c1cnc2ccccc2n1	610
CC(C)(C)NC(=O)c1c(OC[C@@H](O)[C@H](Cc2ccccc2)NC(=O)[C@H](CC(N)=O)NC(=O)c2ccc3c(c2)S(=O)(=O)c2ccccc2C3=O)ccc2ccccc12	100
CC(C)(C)NC(=O)c1c(OC[C@@H](O)[C@H](Cc2ccccc2)NC(=O)[C@H](CC(N)=O)NC(=O)c2ccc3c(c2)C(=O)c2ccccc2C3=O)ccc2ccccc12	160
CC(C)(C)NC(=O)c1ccccc1OC[C@@H](O)[C@H](Cc1ccccc1)NC(=O)[C@H](CC(N)=O)NC(=O)c1ccc2c(c1)S(=O)(=O)c1ccccc1C2=O	550
